target: CYP2C19 (Homo sapiens, UniProt P33261); test: CYP2C19 inhibition (fluorescent substrate); format: in vitro ADME; conditions: CYP2C19, CEC substrate; read-out: Cyp IC50 2C19
Sequence (P33261 whole entry): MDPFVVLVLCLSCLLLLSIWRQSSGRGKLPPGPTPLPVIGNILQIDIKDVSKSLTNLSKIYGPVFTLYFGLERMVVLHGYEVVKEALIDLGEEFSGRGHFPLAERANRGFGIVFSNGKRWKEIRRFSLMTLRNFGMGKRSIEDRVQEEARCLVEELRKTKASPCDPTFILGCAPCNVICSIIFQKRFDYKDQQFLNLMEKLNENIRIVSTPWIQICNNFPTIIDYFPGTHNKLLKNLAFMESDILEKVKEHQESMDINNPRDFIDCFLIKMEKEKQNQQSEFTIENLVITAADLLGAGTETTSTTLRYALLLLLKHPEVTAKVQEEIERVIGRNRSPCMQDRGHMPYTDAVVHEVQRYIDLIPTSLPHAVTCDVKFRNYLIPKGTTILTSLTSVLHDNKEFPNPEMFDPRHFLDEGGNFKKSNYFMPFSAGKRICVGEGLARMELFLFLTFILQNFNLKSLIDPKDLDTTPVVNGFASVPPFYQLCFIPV
pIC50: −log10 of the molar value.
The compounds listed here are annotated with their pIC50.

Here is how some compounds turned out for pIC50.
>>> assay_value("Cc1cnc2[nH]cc(C(=O)c3c(F)ccc(NS(=O)(=O)c4c(F)cccc4F)c3F)c2c1 [P-2024]")
"< 5.00"
>>> assay_value("CCCS(=O)(=O)Nc1ccc(F)c(C(=O)c2c[nH]c3ncc(-c4ccc(C#CCN(CC)CC)nc4)cc23)c1F [P-2222]")
"> 5.30"
>>> assay_value("N#Cc1cnc2[nH]cc(C(=O)c3c(F)ccc(NS(=O)(=O)c4ccccc4)c3F)c2c1 [P-2046]")
"> 5.30"
>>> assay_value("CCCc1ccc(-c2cnc3[nH]cc(C(=O)c4c(F)ccc(NS(=O)(=O)CCC)c4F)c3c2)cn1 [P-2224]")
"5.00 to 5.30"
>>> assay_value("CCCS(=O)(=O)Nc1ccc(F)c(C(=O)c2c[nH]c3ncc(-c4ccc(NS(C)(=O)=O)cc4)cc23)c1F [P-2165]")
"5.00 to 5.30"

According to the records, this compound Cc1cnc2[nH]cc(C(=O)c3c(F)ccc(NS(=O)(=O)c4ccccc4F)c3F)c2c1 [P-2014] displays pIC50 of < 5.00

Short answer for CCCS(=O)(=O)Nc1ccc(F)c(C(=O)c2c[nH]c3ncc(-c4ccc(S(=O)(=O)N(C)C)cc4)cc23)c1F [P-2185] : pIC50 was < 5.00

The compound listed as CCCS(=O)(=O)Nc1ccc(F)c(C(=O)c2c[nH]c3ncc(-c4ccc(NC(C)=O)nc4)cc23)c1F [P-2193] shows pIC50 equal to 5.00 to 5.30

Query O=C(c1c(F)ccc(NS(=O)(=O)c2ccccc2F)c1F)c1c[nH]c2nccc(Cl)c12 [P-2017] yields pIC50 of < 5.00

Recorded result, CCCS(=O)(=O)Nc1ccc(F)c(C(=O)c2c[nH]c3ncc(-c4cccc(S(C)(=O)=O)c4)cc23)c1F [P-2228] , pIC50: < 5.00

response.value for CCCS(=O)(=O)Nc1ccc(F)c(C(=O)c2c[nH]c3ncc(-c4ccc(OCCCN5CCOCC5)nc4)cc23)c1F [P-2236] (field: pIC50) = > 5.30

Recorded pIC50 (compound CCCS(=O)(=O)Nc1ccc(F)c(C(=O)c2c[nH]c3ncc(-c4cnc(SC)nc4)cc23)c1F [P-2189] ): 5.00 to 5.30

Form: compound = CCCS(=O)(=O)Nc1ccc(F)c(C(=O)c2c[nH]c3ncc(-c4ccc(S(=O)(=O)C(C)C)cc4)cc23)c1F [P-2223] ; pIC50 = < 5.00

Lab note: N#Cc1ccnc2[nH]cc(C(=O)c3c(F)ccc(NS(=O)(=O)c4ccccc4F)c3F)c12 [P-2020] gave pIC50 of < 5.00

Sure, the documented pIC50 for CCCS(=O)(=O)Nc1ccc(F)c(C(=O)c2c[nH]c3ncc(-c4ccc(N5CCCC5)nc4)cc23)c1F [P-2231] is 5.00 to 5.30

* * *

molecular target: CYP3A4(BFC) (Homo sapiens); test: CYP3A4(BFC) inhibition (fluorescent substrate); type: in vitro ADME; conditions: read-out: Cyp IC50 3A4(BFC)
Sequence (P08684 whole entry): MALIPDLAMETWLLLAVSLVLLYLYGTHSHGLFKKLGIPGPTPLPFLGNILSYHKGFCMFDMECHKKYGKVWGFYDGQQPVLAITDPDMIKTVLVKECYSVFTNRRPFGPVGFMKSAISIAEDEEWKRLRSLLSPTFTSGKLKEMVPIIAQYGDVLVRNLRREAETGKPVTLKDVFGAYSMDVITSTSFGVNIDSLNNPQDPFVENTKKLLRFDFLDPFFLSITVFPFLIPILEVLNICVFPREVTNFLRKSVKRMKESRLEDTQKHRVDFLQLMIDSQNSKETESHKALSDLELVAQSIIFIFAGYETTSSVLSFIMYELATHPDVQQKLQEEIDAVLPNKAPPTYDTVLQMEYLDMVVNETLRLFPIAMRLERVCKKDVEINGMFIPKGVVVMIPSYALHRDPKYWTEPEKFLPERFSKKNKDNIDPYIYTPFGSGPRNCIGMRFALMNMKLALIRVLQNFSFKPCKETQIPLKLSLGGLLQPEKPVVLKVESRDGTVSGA
pIC50: −log10 of the molar value.
Entries annotated with measured pIC50

Worked cases, pIC50 given:
>>> assay_value("CCCS(=O)(=O)Nc1ccc(F)c(C(=O)c2c[nH]c3ncc(-c4ccc(SC)nc4)cc23)c1F [P-2187]")
"< 5.00"
>>> assay_value("Cc1cnc2[nH]cc(C(=O)c3c(F)ccc(NS(=O)(=O)c4ccccc4F)c3F)c2c1 [P-2014]")
"< 5.00"
>>> assay_value("Cc1cnc2[nH]cc(C(=O)c3c(F)ccc(NS(=O)(=O)c4cc(F)ccc4F)c3F)c2c1 [P-2015]")
"< 5.00"

Measured pIC50, CCCS(=O)(=O)Nc1ccc(F)c(C(=O)c2c[nH]c3ncc(-c4cnc(OC)nc4OC)cc23)c1F [P-2199] : < 5.00

Looking up CCCS(=O)(=O)Nc1ccc(F)c(C(=O)c2c[nH]c3ncc(-c4ccc(NC(C)=O)nc4)cc23)c1F [P-2193] , I see its pIC50 listed as 5.00 to 5.30

Entry O=C(c1c(F)ccc(NS(=O)(=O)c2cccnc2)c1F)c1c[nH]c2ncc(Cl)cc12 [P-2071] — recorded pIC50 = > 5.30

So, N#Cc1ccnc2[nH]cc(C(=O)c3c(F)ccc(NS(=O)(=O)c4cc(F)ccc4F)c3F)c12 [P-2036] ? Its pIC50 was < 5.00
